Cited source: ChEMBL document CHEMBL1201862

tested on: LOX IMVI; experiment: NCI tumour cell line growth inhibition, 48 h
Activity calls are given as the source filed them. Cut-off read from the data, not from the text of the source: active = GI50 up to about 1.1 µM and inactive = higher.
Choose the fitting class; nothing outside True = active, False = inactive is accepted.

Q: Hello, I am checking results. What call was entered for Cc1ccc(OC2CC(n3cnc4ncnc(Cl)c43)OC2Oc2ccc(C)cc2)cc1 (stereo not drawn) ?
Result: False

Q: Hello, I am checking results. What call was entered for "CN1CCN(c2ncc3c(n2)sc2c(=O)n(-c4ccccc4)cnc23)CC1" ?
Result: False

Q: Hello, I am checking results. What call was entered for "Cc1csc(NNC(N)=O)n1" ?
Result: False

Q: Hello, I am checking results. What call was entered for "O=C(O)c1ccc([N+](=O)[O-])c2c(=O)c3ccccc3[nH]c12" ?
Result: False

Q: Hello, I am checking results. What call was entered for COc1cc([C@@H]2c3cc4c(cc3[C@@H](NC(=O)c3cccc(F)c3)C3COC(=O)[C@@H]32)OCO4)cc(OC)c1O (stereo partly drawn) ?
Result: True

Q: Hello, I am checking results. What call was entered for "CC1(C)N=C(N)N=C(N)N1c1ccc(Cl)cc1" ?
Result: False

Q: Hello, I am checking results. What call was entered for COC1=C2C=[N+](C)C3C(=C2C=CC1OC)Cc1cc2c(cc13)OCO2 (stereo not drawn) ?
Result: False

Q: Hello, I am checking results. What call was entered for CC(NNC(=O)c1cc[n+]([BH2-]C#N)cc1)c1ccc(F)cc1 (stereo not drawn) ?
Result: False

Q: Hello, I am checking results. What call was entered for Cc1ccc(S(=O)(=O)OC2C(C3COC(C)(C)O3)OC3OC(C)(C)OC32)cc1 (stereo not drawn) ?
Result: False

Q: Hello, I am checking results. What call was entered for "Oc1cccc2cc(Br)cnc12" ?
Result: False

Q: Hello, I am checking results. What call was entered for "CN(CC(=O)O)S(=O)(=O)c1ccc(F)cc1" ?
Result: False

Q: Hello, I am checking results. What call was entered for Oc1ccc(O)c(CNc2ccc(C(O)C(F)(F)F)cc2)c1 (stereo not drawn) ?
Result: False

Q: Hello, I am checking results. What call was entered for "c1ccc(C2=NN(c3nc4ccccc4s3)C3(CCCCC3)N2)nc1" ?
Result: False

Q: Hello, I am checking results. What call was entered for Cc1ccc(C)c(NC(=O)C(Cc2c[nH]c3ccccc23)NC(=O)OCc2ccccc2)c1 (stereo not drawn) ?
Result: False

Q: Hello, I am checking results. What call was entered for "Fc1ccc2c3c([nH]c2c1)CCNC3" ?
Result: False

Q: Hello, I am checking results. What call was entered for "COC(=O)Cc1c(C(=O)CC(C)(C)n2cnc(CCN3C(=O)CCC3=O)c2)[nH]c2ccccc12" ?
Result: False

Q: Hello, I am checking results. What call was entered for COC(=O)C(CC=O)C(=O)C(=O)Nc1cccc(C(F)(F)F)c1 (stereo not drawn) ?
Result: False
